# SYSTEM NAME: DNA topoisomerase 2-alpha (Homo sapiens) (UniProt P11388)
# Sequence (P11388 whole entry): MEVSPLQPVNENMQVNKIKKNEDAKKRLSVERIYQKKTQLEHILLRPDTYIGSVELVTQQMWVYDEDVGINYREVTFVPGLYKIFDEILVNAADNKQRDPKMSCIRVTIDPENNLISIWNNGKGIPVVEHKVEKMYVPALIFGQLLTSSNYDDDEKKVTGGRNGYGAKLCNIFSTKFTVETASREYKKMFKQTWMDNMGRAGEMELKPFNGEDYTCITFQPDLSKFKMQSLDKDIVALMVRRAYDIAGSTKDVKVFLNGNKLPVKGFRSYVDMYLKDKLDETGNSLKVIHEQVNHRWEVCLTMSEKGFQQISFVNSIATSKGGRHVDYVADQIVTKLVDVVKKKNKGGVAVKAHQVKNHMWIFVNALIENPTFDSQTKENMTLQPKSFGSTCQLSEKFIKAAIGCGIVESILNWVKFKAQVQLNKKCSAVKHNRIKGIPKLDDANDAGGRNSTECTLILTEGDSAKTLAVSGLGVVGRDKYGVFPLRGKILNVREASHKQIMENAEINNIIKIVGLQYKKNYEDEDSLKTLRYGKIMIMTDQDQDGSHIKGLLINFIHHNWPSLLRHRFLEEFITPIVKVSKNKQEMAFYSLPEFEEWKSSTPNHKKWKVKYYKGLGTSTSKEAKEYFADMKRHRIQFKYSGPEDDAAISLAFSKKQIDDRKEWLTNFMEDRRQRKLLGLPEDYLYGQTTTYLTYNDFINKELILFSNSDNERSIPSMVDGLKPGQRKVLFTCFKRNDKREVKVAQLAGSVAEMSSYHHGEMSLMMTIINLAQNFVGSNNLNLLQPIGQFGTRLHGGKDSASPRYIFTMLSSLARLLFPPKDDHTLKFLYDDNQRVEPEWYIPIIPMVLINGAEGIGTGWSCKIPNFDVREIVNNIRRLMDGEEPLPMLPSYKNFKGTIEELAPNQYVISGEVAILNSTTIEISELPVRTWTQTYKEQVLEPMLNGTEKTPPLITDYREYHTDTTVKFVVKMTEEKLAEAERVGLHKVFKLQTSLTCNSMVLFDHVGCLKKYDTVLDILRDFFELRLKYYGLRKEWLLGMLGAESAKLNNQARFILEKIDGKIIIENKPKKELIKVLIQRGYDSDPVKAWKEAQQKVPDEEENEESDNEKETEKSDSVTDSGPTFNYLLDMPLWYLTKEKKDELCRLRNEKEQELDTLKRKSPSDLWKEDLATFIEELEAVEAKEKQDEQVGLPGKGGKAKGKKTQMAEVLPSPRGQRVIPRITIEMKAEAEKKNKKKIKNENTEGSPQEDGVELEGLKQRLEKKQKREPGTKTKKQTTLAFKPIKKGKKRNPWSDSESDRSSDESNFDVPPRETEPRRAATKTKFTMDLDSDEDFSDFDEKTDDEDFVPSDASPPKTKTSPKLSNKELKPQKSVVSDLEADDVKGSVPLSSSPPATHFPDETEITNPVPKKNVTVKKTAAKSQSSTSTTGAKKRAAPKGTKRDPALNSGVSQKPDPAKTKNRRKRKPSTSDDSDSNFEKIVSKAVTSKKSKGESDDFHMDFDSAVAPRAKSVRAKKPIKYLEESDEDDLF
# ASSAY NAME: Inhibition of human recombinant topoisomerase 2 alpha-mediated Crithidia fasciculate kDNA decatenation at 20 uM relative to control
PARAMETER: inhibition (%)
Supply the numeric figure in %, leaving out any unit text.

Cn1cc(N)cc1C(=O)NCCn1nc2c3c(cccc31)C(=O)c1c(Cl)cccc1-2	91
Cn1cc(N)cc1C(=O)NCCn1nc2c3c(cccc31)C(=O)c1ccccc1-2	94
CN(C)CC(=O)Nc1cc(C(=O)Nc2cc(C(=O)NCCn3nc4c5c(cccc53)C(=O)c3c(Cl)cccc3-4)n(C)c2)n(C)c1	97

Pending compound:
Prompt: Provide value of inhibition for this record tested with DNA topoisomerase 2-alpha (Homo sapiens) (UniProt P11388): Cn1cc(NC(=O)c2cc(NC(=O)CNC(=N)N)cn2C)cc1C(=O)NCCC(=N)N
Completion: 39
